- Test system: UACC-257 melanoma
- protocolSummary: NCI-60 one-dose screen, 48 h
- testParameters: 10 µM unless noted
- Experimental: Cells are grown in 96 well plates and exposed to the test compound for 48 hours. Compounds are tested at a single concentration, which is 10^-5 M for most compounds. The reported endpoint is percent growth (GI% or GIPRCNT), where numbers from 0 - 100% represent growth inhibition, and numbers from -100% - 0 represent cell death. For example, a value of 40 represents 60% growth inhibition. A value of 0 means no net growth occurred over the course of the experiment. […]
About 83,000 compounds went through this panel and 20% of them were active in at least one assay; those are over-represented in the sample as a whole. Active and inactive are the calls of the source. How the source made its calls: active means growth percent below 10; inactive means the rest.
# output must be one of active, inactive

CC1=C2C(=O)[C@H]3[C@@H](CC=C4C[C@@H](O)CC[C@@]43C)[C@@H]2CC[C@]12O[C@@H]1C[C@H](C)CN[C@H]1[C@H]2C : inactive
CC[C@@]1(O)C[C@H](OC2CC(N(C)C)C(O)C(C)O2)c2c(O)c3c(c(O)c2[C@H]1OC1CC(N(C)C)C(O)C(C)O1)C(=O)c1cccc(O)c1C3=O (stereo partly specified) : active
COC1CC(CC2CCC(C)C(C(C)C(=O)O)O2)OC2(OC(C)(C3CCC(C)(C4OC(C5OC(O)(CO)C(C)CC5C)CC4C)O3)CC2C)C1C (stereo unspecified) : active

Task item: Name the outcome recorded for Cc1c(N)nc([C@H](CC(N)=O)NC[C@H](N)C(N)=O)nc1C(=O)N[C@H](C(=O)N[C@H](C)[C@@H](O)[C@H](C)C(=O)N[C@H](C(=O)NCCc1nc(-c2nc(C(=O)NCCC[S+](C)C)cs2)cs1)[C@@H](C)O)C(OC1OC(CO)C(O)C(O)C1OC1OC(CO)C(O)C(OC(N)=O)C1O)c1cnc[nH]1 (stereo partly specified) in the assay.
Reply: inactive

Task item: Please do the same for CCOC(=O)C(NC(=O)C(Cc1ccc(N(CCCl)CCCl)cc1)NC(C)=O)C(C)C (stereo unspecified) as well.
Reply: inactive

Task item: Please do the same for COC1=C(C)C(=O)C2=C(C1=O)C(CO)N1C(C#N)C3CC4C(C1C2N1CCOC41)N3C (stereo unspecified) as well.
Reply: active

----------
- Test system: T-47D breast
- protocolSummary: NCI-60 one-dose screen, 48 h (100 = growth as untreated, 0 = no growth, -100 = all killed)
- testParameters: 10 µM unless noted
Compounds without any hit were thinned out: in the full panel of roughly 83,000, 20% have a hit.
propertyName: growth (%)
Hi! Could you send only the number? It should be in %, unit omitted.

C[C@]12CC[C@H](O)CC1=CC[C@@H]1[C@@H]2CC[C@]2(C)C(=O)CC[C@@H]12 : 96.4
COC1CC(CC2CCC(C)C(C(C)C(=O)O)O2)OC2(OC(C)(C3CCC(C)(C4OC(C5OC(O)(CO)C(C)CC5C)CC4C)O3)CC2C)C1C (stereo not given) : 15.9
COC1=C(C)C(=O)C2=C(C1=O)C(CO)N1C(C#N)C3CC4C(C1C2N1CCOC41)N3C (stereo not given) : -16.8
CCCCCCCCCCCC1CCCC(C)N1 (stereo not given) : 102

Now take the following molecule into account.
Task item: Which growth is listed for "NCCc1ccc(OCc2ccccc2)c(OCc2ccccc2)c1" ?
Reply: 69.2

----------
- Test system: A498 renal
- protocolSummary: NCI-60 one-dose screen, 48 h
- testParameters: 10 µM unless noted
- Experimental: Growth inhibition of the A498 human tumor cell line is measured as a screen for anti-cancer activity. Cells are grown in 96 well plates and exposed to the test compound for 48 hours. Compounds are tested at a single concentration, which is 10^-5 M for most compounds. The reported endpoint is percent growth (GI% or GIPRCNT), where numbers from 0 - 100% represent growth inhibition, and numbers from -100% - 0 represent cell death. For example, a value of 40 represents 60% growth inhibition. […]
This is part of a sample that, as a whole, favours compounds with a hit. Of some 83,000 tested, about 20% had one in any assay. Activity calls are given as the source filed them. Rule for the calls: active = growth percent below 10; inactive = the rest.
# output must be one of True (active), False (inactive)

Reference set (4 entries):
CCC1(O)CC(OC2CC(N(C)C)C(OC3CC4OC5CC(=O)C(C)OC5OC4C(C)O3)C(C)O2)c2c(cc3c(c2O)C(=O)c2c(O)ccc(O)c2C3=O)C1C(=O)OC (configuration not stated) : True
CC1=C2C(=O)[C@H]3[C@@H](CC=C4C[C@@H](O)CC[C@@]43C)[C@@H]2CC[C@]12O[C@@H]1C[C@H](C)CN[C@H]1[C@H]2C : False
CC1=C(CO)C2=C(C)C3(CC3)[C@@](C)(O)C(=O)C2=C1 : True
COc1ccc(OC)c(/C=C/[N+](=O)[O-])c1 : False

Task item: Name the outcome recorded for "CC[n+]1c(-c2ccccc2)c2cc(N)ccc2c2ccc(N)cc21" in the assay.
Reply: False

Task item: Please do the same for "CC[C@](O)(C(=O)O)c1cc2n(c(=O)c1CO)Cc1cc3ccccc3nc1-2" as well.
Reply: True

Task item: Please do the same for Cc1c(N)nc([C@H](CC(N)=O)NC[C@H](N)C(N)=O)nc1C(=O)N[C@H](C(=O)N[C@H](C)[C@@H](O)[C@H](C)C(=O)N[C@H](C(=O)NCCc1nc(-c2nc(C(=O)NCCC[S+](C)C)cs2)cs1)[C@@H](C)O)C(OC1OC(CO)C(O)C(O)C1OC1OC(CO)C(O)C(OC(N)=O)C1O)c1cnc[nH]1 (some centres not stated) as well.
Reply: False

----------
- Tested on: HT29 colon
- protocolSummary: NCI-60 one-dose screen, 48 h (100 = growth as untreated, 0 = no growth, -100 = all killed)
- testParameters: 10 µM unless noted
Compounds without any hit were thinned out: in the full panel of roughly 83,000, 20% have a hit.
Here, each record is paired with measured growth data.
Hi! Could you send only the number? It should be in %, unit omitted.

Please review the entries below; each comes with its answer.
C[C@]12CC[C@H](O)CC1=CC[C@@H]1[C@@H]2CC[C@]2(C)C(=O)CC[C@@H]12 : 81.5
CCC(=O)OC1CCn2c1nc1c2C(=O)C(C)=C(N2CC2)C1=O (centres undefined) : 7.71

Task item: Which growth is listed for "CC[n+]1c(-c2ccccc2)c2cc(N)ccc2c2ccc(N)cc21" ?
Reply: 9.77

Task item: Please do the same for CC[C@@]1(O)C[C@H](OC2CC(N(C)C)C(O)C(C)O2)c2c(O)c3c(c(O)c2[C@H]1OC1CC(N(C)C)C(O)C(C)O1)C(=O)c1cccc(O)c1C3=O (some centres undefined) as well.
Reply: -39

----------
- System: NCI-H460 lung
- protocolSummary: NCI-60 one-dose screen, 48 h (100 = growth as untreated, 0 = no growth, -100 = all killed)
- testParameters: 10 µM unless noted
This is part of a sample that, as a whole, favours compounds with a hit. Of some 83,000 tested, about 20% had one in any assay.
propertyName: growth (%)
Hi! Could you send only the number? It should be in %, unit omitted.

Please review the entries below; each comes with its answer.
C[C@]12CC[C@H](O)CC1=CC[C@@H]1[C@@H]2CC[C@]2(C)C(=O)CC[C@@H]12 : 108
COC1=C(C)C(=O)C2=C(C1=O)C(CO)N1C(C#N)C3CC4C(C1C2N1CCOC41)N3C (configuration not stated) : -14.9
COC1CC(CC2CCC(C)C(C(C)C(=O)O)O2)OC2(OC(C)(C3CCC(C)(C4OC(C5OC(O)(CO)C(C)CC5C)CC4C)O3)CC2C)C1C (configuration not stated) : 4.73
CO[C@H](/C(C)=C/C=C/C(C)=C/c1coc(C)n1)[C@H](C)[C@H]1C[C@@H](O)[C@@]2(C)O[C@H]2/C=C/[C@@H](C)[C@@H]2C[C@@H](CC(=O)O2)C[C@H]2O[C@@H]2C(=O)O1 : 8.2
NCCc1ccc(OCc2ccccc2)c(OCc2ccccc2)c1 : 60.6

Task item: Which growth is listed for "COc1ccc(OC)c(/C=C/[N+](=O)[O-])c1" ?
Reply: -4.3

Task item: Please do the same for CCC1(O)CC(OC2CC(N(C)C)C(OC3CC4OC5CC(=O)C(C)OC5OC4C(C)O3)C(C)O2)c2c(cc3c(c2O)C(=O)c2c(O)ccc(O)c2C3=O)C1C(=O)OC (configuration not stated) as well.
Reply: -26.3

----------
- System: UACC-257 melanoma
- protocolSummary: NCI-60 one-dose screen, 48 h (100 = growth as untreated, 0 = no growth, -100 = all killed)
- testParameters: 10 µM unless noted
Compounds without any hit were thinned out: in the full panel of roughly 83,000, 20% have a hit.
Here, each record is paired with measured growth data.
Hi! Could you send only the number? It should be in %, unit omitted.

Please review the entries below; each comes with its answer.
CO[C@H](/C(C)=C/C=C/C(C)=C/c1coc(C)n1)[C@H](C)[C@H]1C[C@@H](O)[C@@]2(C)O[C@H]2/C=C/[C@@H](C)[C@@H]2C[C@@H](CC(=O)O2)C[C@H]2O[C@@H]2C(=O)O1 : 19.1
C[C@]12CC[C@H](O)CC1=CC[C@@H]1[C@@H]2CC[C@]2(C)C(=O)CC[C@@H]12 : 102
CC[n+]1c(-c2ccccc2)c2cc(N)ccc2c2ccc(N)cc21 : -19.3
CCC1(O)CC(OC2CC(N(C)C)C(OC3CC4OC5CC(=O)C(C)OC5OC4C(C)O3)C(C)O2)c2c(cc3c(c2O)C(=O)c2c(O)ccc(O)c2C3=O)C1C(=O)OC (stereo unspecified) : -3.52
CC1=C(CO)C2=C(C)C3(CC3)[C@@](C)(O)C(=O)C2=C1 : -1.44

Now take the following compound into account.
Task item: I'm curious: which growth was measured for "Cc1cc(N=Nc2ccccc2C)ccc1N" tested on UACC-257 melanoma?
Reply: 132
